Assay: chemical genetic growth profiling, strain panel (AID 1159580);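 note: tested at 20 µM; growth read once vehicle control cultures reached saturation at 30 °C; 1 = growth at the plate median or of vehicle wells; lower values mean less growth of the strain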
Settings: S. cerevisiae deletion strains, growth OD, locus YJL092W, strain hpr5
The whole screen tested about 5,500 compounds, of which about 2,000 (36%) were called active. Not shown: some 18% with an inconclusive outcome. Cut-off read from the data, not from the text of the source: active = normalized growth mostly below about 0.91 (no sharp cut-off); inconclusive = no clear call, values can overlap the other calls; inactive = mostly above about 0.92. Some of the results follow.
Outcome codes: active, inactive

# Compound, Label Class
measured = [
    ("CC(=O)Nc1cc([As](=O)(O)O)ccc1O", "inactive"),
    ("COc1cc2c(c(OC)c1OC)-c1ccc(OC)c(=O)cc1[C@@H](NC(C)=O)CC2", "inactive"),
    ("OC[C@@H]1CCCN2CCCC[C@H]12", "inactive"),
    ("Nc1ccc([As](=O)(O)O)cc1", "inactive"),
    ("COc1ccccc1OCCNCC(O)COc1cccc2[nH]c3ccccc3c12 (configuration not stated)", "inactive"),
    ("CC1(C)CCCC2(C)C3C1[C@@H](O)C2(C)C[C@H]3O (some centres not stated)", "inactive"),
    ("C1CCN2C[C@@H]3C[C@H](CN4CCCC[C@@H]34)[C@H]2C1", "inactive"),
    ("O=[N+]([O-])c1cc(O)c(O)c([N+](=O)[O-])c1", "inactive"),
    ("Nc1ccc(S(=O)(=O)Nc2ccccn2)cc1", "inactive"),
    ("O=[N+]([O-])c1cc([As](=O)(O)O)ccc1O", "inactive"),
    ("O=C(O)CF", "inactive"),
    ("NCCCC[C@H](N[C@@H](CCc1ccccc1)C(=O)O)C(=O)N1CCC[C@H]1C(=O)O", "inactive"),
    ("CS(=O)(=O)CCCCN=C=S", "active"),
    ("C/C=C/c1ccc2c(c1)OCO2", "inactive"),
    ("Nc1ccc(S(=O)(=O)Nc2ccc(Cl)nn2)cc1", "inactive"),
    ("CC(=O)NCCCS(=O)(=O)O", "inactive"),
    ("Cc1c(Nc2ncccc2C(=O)O)cccc1C(F)(F)F", "inactive"),
    ("O=C1CCCC2C3CC(CN12)[C@@H]1CCCCN1C3 (some centres not stated)", "inactive"),
    ("CCOC(=O)c1oc2c(OC)c(O)cc(O)c2c(=O)c1-c1cc(OC)c(OC)c(OC)c1", "inactive"),
    ("C1CCN2CC3CC(CN4CCCCC34)C2C1 (configuration not stated)", "inactive"),
    ("O[N+]1=CC=CCC1=S.On1ccccc1=S.[Zn]", "active"),
    ("CCOP(=S)(OCC)SCn1c(=O)oc2cc(Cl)ccc21", "inactive"),
]

====

Test: chemical genetic growth profiling, strain panel (AID 1159580)
Conditions: S. cerevisiae deletion strains, growth OD, locus YBR160W, strain CDC28, active compounds read low
In all, about 5,500 compounds went through this assay and about 2,000 (36%) were called active. Roughly 18% stayed inconclusive and do not appear here. Some of the results follow.
Listing of entries alongside the reported normalized growth.

# Compound, normalized growth
measured = [
    ("Cn1c(CSCCOc2ccccc2)nnc1SCc1ccc(Cl)cc1Cl", 0.98),
    ("O=C(c1ccc2ccccc2c1)N1CCN(c2ccnc3cc(Cl)ccc23)CC1", 0.995),
    ("O=C(Nc1ccc(C(F)(F)F)cc1)N1CCN(c2ccnc3cc(Cl)ccc23)CC1", 0.973),
    ("S=C(N/N=C\\c1ccc(Cl)cc1)N/N=C\\c1ccc(Cl)cc1", 0.969),
    ("O=C(NCc1ccncc1)c1ccc(-n2cccn2)cc1", 0.984),
    ("CSc1cc(-c2ccncc2)nc(-c2cccs2)c1", 0.952),
]

====

Test: chemical genetic growth profiling, strain panel (AID 1159580)
Conditions: S. cerevisiae deletion strains, growth OD, locus YPL240C, strain hsp82, active compounds read low
Screen size: about 5,500 compounds; about 2,000 (36%) were called active. Not shown: some 18% with an inconclusive outcome. The list shows a part of the results.
Returns: string. Value is yes if measured normalized growth is below 1, and no if it is greater than or equal to it.

# Compound, Label Class
measured = [
    ("O=C(O)/C=C/C=C/c1ccccc1", "yes"),
    ("Oc1c(Cl)cc(Cl)c2cccnc12", "yes"),
    ("CC(=O)O[C@@H]1C[C@@]2(C)[C@H](c3ccoc3)C[C@H]3O[C@]32[C@]2(C)C(=O)C(O)=C3C(C)(C)C(=O)C=C[C@]3(C)C12 (some centres not stated)", "yes"),
    ("CN[C@H](CC(=O)O)C(=O)O", "no"),
    ("Oc1c(I)cc(Cl)c2cccnc12", "yes"),
    ("C1CNCCN1", "no"),
    ("CC1(C)C(=O)C=C[C@@]2(C)C1=C(O)C(=O)[C@]1(C)C2CC[C@@]2(C)[C@H](c3ccoc3)C[C@H]3O[C@]321 (some centres not stated)", "yes"),
    ("CS(=O)(=O)CCCCN=C=S", "yes"),
]

====

Experiment: chemical genetic growth profiling, strain panel (AID 1159580);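 note: tested at 20 µM; growth read once vehicle control cultures reached saturation at 30 °C; 1 = growth at the plate median or of vehicle wells; lower values mean less growth of the strain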
Settings: S. cerevisiae deletion strains, growth OD, locus YOR119C, strain RIO1, active compounds read low
About 2,000 (36%) of roughly 5,500 compounds were called active. About 18% were inconclusive and are not listed. Some of the results follow.
Returns: string. Value is met if measured normalized growth is below 1, and not met if it is greater than or equal to it.

# Compound, Label Class
data = [
    ("N#CC(C#N)=C/C=C(/Sc1nc2ccccc2s1)c1ccc(Br)cc1", "met"),
    ("COc1ccc(C(=O)CSC2=NCCc3ccccc32)cc1", "not met"),
    ("O=C(NCCSCc1ccco1)Nc1cc(Cl)cc(Cl)c1", "met"),
    ("O=C(Nc1ccc(C(F)(F)F)cc1)N1CCN(c2ccnc3cc(Cl)ccc23)CC1", "not met"),
    ("CC(C)c1ccc(NCC(O)CSc2ccccc2)cc1 (stereo unspecified)", "met"),
]

====

Test: chemical genetic growth profiling, strain panel (AID 1159580);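 note: tested at 20 µM; growth read once vehicle control cultures reached saturation at 30 °C; 1 = growth at the plate median or of vehicle wells; lower values mean less growth of the strain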
Details: S. cerevisiae deletion strains, growth OD, locus YOL006C, strain TOP1
Screen size: about 5,500 compounds; about 2,000 (36%) were called active. About 18% were inconclusive and are not listed. Rule as the data show it: active = normalized growth mostly below about 0.91 (no sharp cut-off); inconclusive = no clear call, values can overlap the other calls; inactive = mostly above about 0.92. Some of the results follow.
Outcome codes: active, inactive

# Molecule, Label Class
measured = [
    ("CN1CCN(C=Nc2ncc(C(F)(F)F)cc2Cl)CC1", "inactive"),
    ("COc1cccc(C2C3=C(CC(C)(C)CC3=O)OC3=C2C(=O)CC(C)(C)C3)c1O", "inactive"),
    ("CC(C)(C)NCC(O)c1ccccc1Cl (configuration not stated)", "inactive"),
    ("O=C(O)/C=C/C=C/c1ccccc1", "inactive"),
    ("CCCC1O[C@@H]2CC3C4CCC5=CC(=O)C=CC5(C)C4[C@@H](O)CC3(C)[C@]2(C(=O)CO)O1 (some centres not stated)", "inactive"),
    ("COc1ccccc1OCCNCC(O)COc1cccc2[nH]c3ccccc3c12 (configuration not stated)", "inactive"),
    ("NC(=O)c1ccccc1N1CCCCC1", "inactive"),
    ("C=CC(C1=CC(=O)C(OC)=CC1=O)c1ccccc1 (configuration not stated)", "inactive"),
    ("O=C(N/N=C\\c1cccs1)c1ccccc1CO", "inactive"),
    ("C1CCN2C[C@@H]3C[C@H](CN4CCCC[C@@H]34)[C@H]2C1", "inactive"),
    ("O=C(O)CCCCC1CCSS1 (configuration not stated)", "inactive"),
    ("CCCCC(CC)CN1CN(CC(CC)CCCC)CC(C)(N)C1 (configuration not stated)", "active"),
]

====

Assay: chemical genetic growth profiling, strain panel (AID 1159580);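 note: tested at 20 µM; growth read once vehicle control cultures reached saturation at 30 °C; 1 = growth at the plate median or of vehicle wells; lower values mean less growth of the strain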
Details: S. cerevisiae deletion strains, growth OD, locus YDL017W, strain CDC7
Screen size: about 5,500 compounds; about 2,000 (36%) were called active. Not shown: some 18% with an inconclusive outcome. Rule as the data show it: active = normalized growth mostly below about 0.91 (no sharp cut-off); inconclusive = no clear call, values can overlap the other calls; inactive = mostly above about 0.92. This is one part of the list.
Outcome codes: True = active, False = inactive

# Compound, Label Class
records = [
    ("Cc1c2c(=O)[nH]ncc2c(-c2ccccc2)n1-c1ccc([N+](=O)[O-])cc1", "False"),
    ("N#CCC(=O)NNC(=S)Nc1ccc(Cl)c(Cl)c1", "False"),
    ("NC(=Nc1ccc(F)cc1)SCc1c(Cl)cccc1Cl", "False"),
    ("CCOC(=O)/C(=N/Nc1c(Cl)cccc1Cl)c1csc(N)n1", "False"),
    ("CSc1ccc(/C=C(\\C)[N+](=O)[O-])cc1", "True"),
    ("O=C(NC(=O)c1c(F)cccc1Cl)OCc1ccc(Cl)cc1Cl", "False"),
    ("S=C(N/N=C\\c1ccc(Cl)cc1)N/N=C\\c1ccc(Cl)cc1", "False"),
    ("O=c1c(Cl)c(-n2cccn2)cnn1-c1ccc(Cl)cc1Cl", "False"),
    ("Cc1cc(Cl)ccc1NC(=S)NNC(=S)Nc1ccc(F)cc1", "False"),
    ("C/C(=C\\c1ccc2c(c1)OCO2)[N+](=O)[O-]", "True"),
    ("O=[N+]([O-])c1cc(Br)cnc1Sc1nnc(SCC2CC2)s1", "False"),
]
